The reported measurements were obtained from paper PMC1266348.

- Target System: HIV-1 RT wild type (HIV-1, UniProt P04585;P04585 588-1147;588-1027)
- Measurement Protocol: competition (inhibition of polymerase activity); 6 mM Mg2+; 24 nM template-primer; 80 mM KCl, 50 mM Tris-Cl pH 8.0, 6 mM MgCl2, 1 mM DTT, 0.1 mg/ml BSA, 24 nM template-primer (16S rRNA/VP200), dNTPs, 25 ng RT per 50 ul, 37 C, 15 min; IC50 of p
- Condition Info: protein: recombinant; copies: 1;1
Recorded Metric: IC50
Include the unit after the number when you answer.

-- ask Entry ATCCGCCTGATTAGCGATACTCAGAAGGATAAACTGTCCAGAACTTGGA (ssDNA) [RT1t49] needs its IC50 filled in; supply it.
-- reply 1.5 nM
